// Ratio IC50 lookup, one value per entry
organism: Homo sapiens; assay: Selectivity index, ratio of IC50 for human recombinant CYP11B1 to IC50 for human recombinant CYP11B2

Before answering, review these 2 worked examples.
**Query** Reported Ratio IC50 for Fc1cc2nc(-c3cncnc3C3CC3)n(C3CC3)c2cc1F : what is it?
**Result** > 58

**Query** And Fc1ccc2nc(-c3cnccn3)n(C3CC3)c2c1 ?
**Result** > 18

Now for a further compound.
**Query** Could you tell me which Ratio IC50 is on file for Fc1ccc2nc(-c3cccnn3)n(C3CC3)c2c1 ?
**Result** > 24

###

Molecular target: Cytochrome P450 11B2, mitochondrial (Homo sapiens, UniProt P19099)
Sequence (P19099 whole entry): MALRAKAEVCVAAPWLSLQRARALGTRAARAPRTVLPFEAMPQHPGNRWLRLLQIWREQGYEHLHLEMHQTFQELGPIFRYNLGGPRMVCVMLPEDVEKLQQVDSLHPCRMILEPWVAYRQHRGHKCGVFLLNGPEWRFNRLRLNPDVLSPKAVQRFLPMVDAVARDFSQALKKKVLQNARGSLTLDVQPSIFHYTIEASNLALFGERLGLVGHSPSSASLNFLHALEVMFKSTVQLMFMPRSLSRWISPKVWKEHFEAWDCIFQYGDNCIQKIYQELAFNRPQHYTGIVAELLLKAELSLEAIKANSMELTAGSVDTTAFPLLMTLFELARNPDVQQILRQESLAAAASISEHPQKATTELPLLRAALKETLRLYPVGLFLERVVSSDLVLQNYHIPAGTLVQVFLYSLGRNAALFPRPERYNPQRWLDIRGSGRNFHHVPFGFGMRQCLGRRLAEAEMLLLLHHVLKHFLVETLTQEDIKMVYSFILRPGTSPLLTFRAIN
Assay: Inhibition of human recombinant CYP11B2 using deoxycorticosterone as substrate incubated for 90 mins by cell-based HPLC analysis
Readout Kind: IC50

# example entries with known answers
**Query** Record request: IC50 value, item N#Cc1ncncc1-c1nc2cc(F)c(F)cc2n1C1CC1
**Result** 0.013 µM

**Query** Query CCc1ncncc1-c1nc2cc(F)c(F)cc2n1C1CC1 next
**Result** 0.008 µM

**Query** Follow-up entry: N#Cc1ccc2nc(-c3cncnc3C(F)F)n(C3CC3)c2c1
**Result** 0.009 µM

Now let's try a different one.
**Query** Bench note: what IC50 did N#Cc1ccc2nc(-c3cncnc3C(F)(F)F)n(C3CC3)c2c1 show?
**Result** 0.016 µM

From: ChEMBL document CHEMBL4304781
